measurement target: human PCSK9 / human LDLR EGFa domain interaction (Homo sapiens, UniProt Q8NBP7)
Sequence (Q8NBP7 153-692): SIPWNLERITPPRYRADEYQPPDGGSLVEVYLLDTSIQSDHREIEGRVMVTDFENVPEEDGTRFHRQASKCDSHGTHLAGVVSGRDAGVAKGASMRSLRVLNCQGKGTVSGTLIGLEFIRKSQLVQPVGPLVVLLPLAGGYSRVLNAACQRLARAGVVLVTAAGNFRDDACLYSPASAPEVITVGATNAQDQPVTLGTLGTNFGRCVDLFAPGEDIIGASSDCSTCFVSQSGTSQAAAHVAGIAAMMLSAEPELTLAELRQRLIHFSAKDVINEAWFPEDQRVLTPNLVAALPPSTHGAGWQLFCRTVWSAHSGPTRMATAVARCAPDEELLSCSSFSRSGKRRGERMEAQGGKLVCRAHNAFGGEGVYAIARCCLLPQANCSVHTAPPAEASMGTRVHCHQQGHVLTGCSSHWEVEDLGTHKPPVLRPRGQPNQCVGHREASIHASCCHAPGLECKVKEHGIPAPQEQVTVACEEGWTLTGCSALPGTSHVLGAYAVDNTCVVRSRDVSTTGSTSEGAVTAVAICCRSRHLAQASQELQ
Sequence (Q8NBP7 31-152 partner limits assumed): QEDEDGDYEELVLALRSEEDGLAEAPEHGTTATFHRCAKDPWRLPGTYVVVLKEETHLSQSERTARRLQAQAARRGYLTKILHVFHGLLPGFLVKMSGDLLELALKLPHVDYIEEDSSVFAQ
experimental details: TR-FRET assay of inhibition of the PCSK9-LDLR protein-protein interaction
stated conditions: 20 nM avitag-biotinylated human PCSK9, 20 nM his-tagged human LDLR EGFa domain, 2 hours, room temperature
Numbered stars: 1 amine (or outer) side, 2 acyl side, 3 side chain; on linkers, the order of the positions; unused ones are H or OH. Bridge positions count the residues as written; N and C are the ends. Square brackets hold non-standard residues; d marks the D form. Peptide text beside a SMILES is read from it. Pyridine(2,6-diCH2) = c1cc(C[*:1])nc(C[*:2])c1; Trp(7-aza) = N[C@@H](Cc1c[nH]c2ncccc12)C(=O)O; X1 = C[C@@](N[*:1])(C(=O)[*:2])c1ccccc1; 1Nal = N[C@@H](Cc1cccc2ccccc12)C(=O)O; mXylylene = c1cc(C[*:1])cc(C[*:2])c1; NH(CH2)5NH = C(CCN[*:1])CCN[*:2]; 3Thi = N[C@@H](Cc1ccsc1)C(=O)O; Aad = N[C@@H](CCCC(=O)O)C(=O)O; Tle = CC(C)(C)[C@H](N)C(=O)O; αMeV = CC(C)[C@](C)(N)C(=O)O; S5 = C=CCCC[C@](C)(N)C(=O)O; Iva = CC[C@](C)(N)C(=O)O; Nva = CCC[C@H](N)C(=O)O; Thp = NC1(C(=O)O)CCOCC1; Aib = CC(C)(N)C(=O)O; Mpa = O=C(O)CCS
assay endpoint: IC50

Query :: Requested read-out: IC50. Entry: CCC[C@@H]1NC(=O)[C@H](Cc2ccc(O)cc2)NC(=O)[C@H](C)NC(=O)C(C)(C)NC(=O)[C@H](Cc2c[nH]c3ncccc23)NC(=O)[C@H]([C@@H](C)O)NC(=O)[C@@H]2CCCN2C(=O)[C@H](Cc2ccc(O)cc2)NC(=O)[C@H](C(C)(C)C)NC(=O)[C@@H](NC(C)=O)CCCC(=O)NCCCC[C@@H](C(N)=O)NC(=O)C(C)(C)NC1=O [Compound 049] (Ac-[Aad][Tle]YPT[Trp(7-aza)][Aib]AY[Nva][Aib]K-NH2; lactam 1-12)
Result :: 100 to 1000 nM

Query :: Please give the result for CCC[C@H](NC(=O)[C@@H](NC(=O)[C@@H](NC(=O)[C@H](Cc1ccc(O)cc1)NC(=O)[C@@H]1CSCc2cccc(n2)CSC[C@H](NC(=O)[C@@H](NC(=O)[C@H](CCC)NC(=O)[C@H](CCCCN)NC(C)=O)[C@@H](C)CC)C(=O)N[C@@H](Cc2ccc(O)cc2)C(=O)NCC(=O)NCC(=O)N[C@@H](CC(=O)O)C(=O)N1)[C@@H](C)CC)[C@@H](C)CC)C(N)=O [Compound 055] (Ac-K[Nva]ICYGGDCYII[Nva]-NH2; linker 4-9 via Pyridine(2,6-diCH2)) too.
Result :: 100 to 1000 nM

Query :: Please give the result for CCC[C@@H]1NC(=O)[C@H](Cc2c[nH]c3ncccc23)NC(=O)[C@H]([C@@H](C)O)NC(=O)[C@H](Cc2ccsc2)NC(=O)[C@H](Cc2ccc(O)cc2)NC(=O)[C@H](C(C)(C)C)NC(=O)CCSCc2cccc(c2)CSC[C@@H](C(N)=O)NC(=O)[C@H]([C@@H](C)O)NC(=O)[C@H](CCC)NC(=O)[C@H](Cc2ccc(O)cc2)NC(=O)[C@H](CCC(=O)O)NC1=O [Compound 119] ([Mpa][Tle]Y[3Thi]T[Trp(7-aza)][Nva]EY[Nva]TC-NH2; linker 1-12 via mXylylene) too.
Result :: 1000 to 21000 nM

Query :: Please give the result for C[C@@H](O)[C@@H]1NC(=O)[C@H](Cc2c[nH]cn2)NC(=O)[C@H](Cc2ccc(O)cc2)NC(=O)[C@H](C(C)(C)C)NC(=O)CCSCc2cccc(c2)CSC[C@@H](C(N)=O)NC(=O)[C@H]([C@@H](C)O)NC(=O)[C@](C)(c2ccccc2)NC(=O)[C@H](Cc2ccc(O)cc2)NC(=O)[C@H](CCC(=O)O)NC(=O)C(C)(C)NC(=O)[C@H](Cc2c[nH]c3ncccc23)NC1=O [Compound 293] ([Mpa][Tle]YHT[Trp(7-aza)][Aib]EY[X1]TC-NH2; linker 1-12 via mXylylene) too.
Result :: 1 to 100 nM

Query :: Please give the result for CC(=O)N[C@H]1CSCc2cccc(c2)CSC[C@@H](C(N)=O)NC(=O)[C@H]([C@@H](C)O)NC(=O)[C@](C)(C(C)C)NC(=O)[C@H](Cc2ccc(O)cc2)NC(=O)[C@H](C)NC(=O)C2(CCOCC2)NC(=O)[C@H](Cc2c[nH]c3ncccc23)NC(=O)[C@H]([C@@H](C)O)NC(=O)[C@@H]2CCCN2C(=O)[C@H](Cc2ccc(O)cc2)NC(=O)[C@H](C(C)(C)C)NC1=O [Compound 181] (Ac-C[Tle]YPT[Trp(7-aza)][Thp]AY[αMeV]TC-NH2; linker 1-12 via mXylylene) too.
Result :: 21000 to 50000 nM

Query :: Please give the result for CC[C@]1(C)NC(=O)[C@H](Cc2c[nH]c3ncccc23)NC(=O)[C@H]([C@@H](C)O)NC(=O)[C@@H]2CCCN2C(=O)[C@H](Cc2ccc(O)cc2)NC(=O)[C@H](C(C)(C)C)NC(=O)[C@@H](NC(C)=O)CSCc2cccc(c2)CSC[C@@H](C(N)=O)NC(=O)[C@H]([C@@H](C)O)NC(=O)[C@](C)(C(C)C)NC(=O)[C@H](Cc2ccc(O)cc2)NC(=O)[C@H](C)NC1=O [Compound 182] (Ac-C[Tle]YPT[Trp(7-aza)][Iva]AY[αMeV]TC-NH2; linker 1-12 via mXylylene) too.
Result :: 21000 to 50000 nM

Query :: Please give the result for CCC[C@@H]1NC(=O)[C@H](Cc2cccc3ccccc23)NC(=O)[C@H]([C@@H](C)O)NC(=O)[C@H](Cc2c[nH]cn2)NC(=O)[C@H](Cc2ccc(O)cc2)NC(=O)[C@H](C(C)(C)C)NC(=O)CCSCc2cccc(c2)CSC[C@@H](C(N)=O)NC(=O)[C@H]([C@@H](C)O)NC(=O)[C@H](CCC)NC(=O)[C@H](Cc2ccc(O)cc2)NC(=O)[C@H](CCC(=O)O)NC1=O [Compound 277] ([Mpa][Tle]YHT[1Nal][Nva]EY[Nva]TC-NH2; linker 1-12 via mXylylene) too.
Result :: 100 to 1000 nM

Query :: Please give the result for CCC[C@@H]1NC(=O)[C@H](Cc2ccc(O)cc2)NC(=O)[C@H](C)NC(=O)[C@]2(C)CCC/C=C/CCC[C@](C)(NC1=O)C(=O)NCCCCCNC(=O)CCC[C@H](NC(C)=O)C(=O)N[C@@H](C(C)(C)C)C(=O)N[C@@H](Cc1ccc(O)cc1)C(=O)N1CCC[C@H]1C(=O)N[C@@H]([C@@H](C)O)C(=O)N[C@@H](Cc1cccc3ccccc13)C(=O)N2 [Compound 347] (Ac-[Aad][Tle]YPT[1Nal][S5]AY[Nva][S5]; linker 1-C via NH(CH2)5NH; staple (E) 7-11) too.
Result :: 100 to 1000 nM

Query :: Please give the result for CCC[C@@H]1NC(=O)[C@H](Cc2c[nH]c3ncccc23)NC(=O)[C@H]([C@@H](C)O)NC(=O)[C@H](Cc2c[nH]cn2)NC(=O)[C@H](Cc2ccc(O)cc2)NC(=O)[C@H](C(C)(C)C)NC(=O)CCSCc2cccc(c2)CSC[C@@H](C(N)=O)NC(=O)[C@H]([C@@H](C)O)NC(=O)[C@H](CCC)NC(=O)[C@H](Cc2ccc(O)cc2)NC(=O)[C@H](CC(=O)O)NC1=O [Compound 254] ([Mpa][Tle]YHT[Trp(7-aza)][Nva]DY[Nva]TC-NH2; linker 1-12 via mXylylene) too.
Result :: 100 to 1000 nM
